The origin of these recorded values is the supplement of paper PMC4466140.

target-or-system: SpNbp2
procedure-text: SPOT peptide array binding signal intensity (averaged, normalized) (arbitrary units (background-subtracted, floor 0; scale differs between SH3 domains)); higher = stronger binding of the SH3 domain to the peptide
measurement-type: SPOT peptide array binding signal intensity
Give bare numbers.

>  <binder>
FYNRTAFQLPGDARV

>  <assay-value>
2.5

$$$$

State recorded SPOT peptide array binding signal intensity for all listed binders.
1. KTRLRPAFIQQLWSS
2. TKFRISLGLPVGAIM
3. LLRRTIPKRPFYHVL
4. NMLKKKPLKKPLKRF
5. VGFRLALKFPSRITG

Result string:
1. 58.5
2. 1390
3. 181
4. 536
5. 2320
